tgt: T1, human PCSK9 variant a (human, UniProt Q8NBP7 31-692)
T1 construct: also called Human PCSK9 var A; hPCSK9a
protocol_notes: ProteOn SPR, captured antibody, pH 7.6;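 note: antibodies captured via anti-human Fc on a GLC sensor chip, PCSK9 binding sensorgrams fitted to a 1:1 Langmuir model giving on and off rates, with KD derived from them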
koff overview
Write the number in s⁻¹ without appending the unit.

Consider the following illustrative entries.
CL-148219 (antibody, V domains shown, NLT motif in heavy chain framework 3 confirmed N-glycosylated by mass spectrometry, Human antibody, captured through anti-human Fc in the SPR assay) VH: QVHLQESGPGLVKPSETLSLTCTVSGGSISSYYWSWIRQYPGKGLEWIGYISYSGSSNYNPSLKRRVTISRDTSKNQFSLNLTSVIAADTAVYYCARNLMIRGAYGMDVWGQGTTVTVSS VL: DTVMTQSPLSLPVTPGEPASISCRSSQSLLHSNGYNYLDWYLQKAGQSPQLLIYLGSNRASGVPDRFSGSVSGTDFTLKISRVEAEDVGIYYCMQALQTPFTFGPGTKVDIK :: 0.000234
CL-148489 (antibody, V domains shown, Human antibody with a kappa light chain) VH: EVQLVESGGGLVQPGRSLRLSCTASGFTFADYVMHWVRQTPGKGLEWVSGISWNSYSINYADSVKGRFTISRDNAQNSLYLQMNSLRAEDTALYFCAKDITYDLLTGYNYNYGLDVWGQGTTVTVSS VL: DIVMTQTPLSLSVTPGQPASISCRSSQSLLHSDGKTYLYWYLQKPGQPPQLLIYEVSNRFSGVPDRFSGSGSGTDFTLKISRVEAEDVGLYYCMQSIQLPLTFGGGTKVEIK :: 0.000157
CL-274698 (antibody, V domains shown, Human antibody with a kappa light chain, derived from a PCSK9 knockout mouse) VH: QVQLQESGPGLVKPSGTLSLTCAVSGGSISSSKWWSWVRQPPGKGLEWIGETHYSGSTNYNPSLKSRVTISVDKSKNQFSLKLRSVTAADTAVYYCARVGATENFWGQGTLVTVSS VL: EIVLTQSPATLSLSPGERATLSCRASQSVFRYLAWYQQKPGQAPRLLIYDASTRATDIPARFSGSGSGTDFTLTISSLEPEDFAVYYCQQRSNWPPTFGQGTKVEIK :: 0.000136

We now examine a further binder.
Challenge: Look up koff for this binder: CL-148219 QLT mutant (antibody, V domains shown) VH: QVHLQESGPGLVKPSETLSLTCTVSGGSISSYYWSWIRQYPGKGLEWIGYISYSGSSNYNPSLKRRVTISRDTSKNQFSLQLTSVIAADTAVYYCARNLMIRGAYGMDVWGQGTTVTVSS VL: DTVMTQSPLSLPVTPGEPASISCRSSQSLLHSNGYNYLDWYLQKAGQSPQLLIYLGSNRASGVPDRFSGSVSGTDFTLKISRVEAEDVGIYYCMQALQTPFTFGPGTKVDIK
Response given: 0.000229
